Measured values drawn from patent US8829203B2 for this set.

Consider the following compounds; for each one, report its IC50.
target: CDK5/p25 (Homo sapiens, UniProt Q00535); test: CDK5/p25 kinase assay (histone H1, 15 μM ATP); conditions: 30° C., 30 min
Sequence (Q00535 whole entry): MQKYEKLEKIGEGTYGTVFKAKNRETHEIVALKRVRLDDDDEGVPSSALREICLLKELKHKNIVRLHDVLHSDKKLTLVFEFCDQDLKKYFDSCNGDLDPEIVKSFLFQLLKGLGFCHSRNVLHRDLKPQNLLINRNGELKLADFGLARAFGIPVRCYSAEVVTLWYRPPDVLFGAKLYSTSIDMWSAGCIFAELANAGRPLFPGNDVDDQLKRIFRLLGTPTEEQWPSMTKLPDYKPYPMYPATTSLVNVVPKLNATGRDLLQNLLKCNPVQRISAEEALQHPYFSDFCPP
Sequence (Q15078 99-307 partner limits assumed): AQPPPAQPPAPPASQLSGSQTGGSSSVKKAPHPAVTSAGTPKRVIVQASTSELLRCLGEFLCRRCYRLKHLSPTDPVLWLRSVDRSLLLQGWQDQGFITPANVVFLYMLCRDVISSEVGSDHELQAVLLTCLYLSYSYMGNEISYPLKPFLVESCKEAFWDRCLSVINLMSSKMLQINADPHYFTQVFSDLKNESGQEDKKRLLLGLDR

QUERY: In one line, give reported IC50 of the entry CN(CCO/N=C1/C(=C2/C(=O)Nc3cc(Br)ccc32)Nc2ccccc21)CC(O)CO (stereo not drawn) [Cpd 10] .
RESULT: 240 nM

QUERY: Specify reported IC50 for the compound shown: O=C1Nc2cc(Br)ccc2/C1=C1/Nc2ccccc2/C1=N\OCCN1CCCC1 [Cpd 18]
RESULT: 100 nM

QUERY: Specify IC50 for CN1CCN(CCO/N=C2/C(=C3/C(=O)Nc4cc(Br)ccc43)Nc3ccccc32)CC1 [Cpd 12] and stop.
RESULT: 400 nM

QUERY: Return the recorded IC50 value; entry: O=C1Nc2cc(Br)ccc2/C1=C1/Nc2ccccc2/C1=N\OCCO [Cpd 2]
RESULT: 5000 nM

QUERY: Could you please provide reported IC50 for CCN(CC)CCO/N=C1/C(=C2/C(=O)Nc3cc(Br)ccc32)Nc2ccccc21 [Cpd 17] ? Thanks!
RESULT: 40 nM

QUERY: Identify IC50 associated with the compound O=C1Nc2cc(Br)ccc2/C1=C1/Nc2ccccc2/C1=N\OCCN1CCN(CCOCCO)CC1 [Cpd 26]
RESULT: 330 nM

QUERY: Give me measured IC50, please, for this compound: O=C1Nc2cc(Br)ccc2/C1=C1/Nc2ccccc2/C1=N\OCCN1CCNCC1 [Cpd 22]
RESULT: 180 nM

QUERY: Provide one value: measured IC50 of O=C1Nc2cc(Br)ccc2/C1=C1/Nc2ccccc2/C1=N\OCC(O)CO (stereo not drawn) [Cpd 3]
RESULT: 25 nM

QUERY: Please report IC50 for the following compound: O=C1Nc2cc(Br)ccc2/C1=C1/Nc2ccccc2/C1=N\OCCN1CCCC1 [Cpd 7]
RESULT: 130 nM
